Each recorded value in this set is attributed to ChEMBL document CHEMBL1125363.

- Organism: Mus musculus
- assay name: Oral potency tested by using anti-mescaline test
- Assay type: functional
In this section we review reported ED50 values for a set of compounds.
Number only, in mg/kg; omit the unit.

Worked examples, 2 compounds total:
Nc1ccc(C(=O)CC2CCN(CC3CC3)CC2)cc1.O	10
C[C@@H]1CN(CCCn2c3ccccc3c3ccccc32)C[C@H](C)N1	22

INPUT: Given Fc1ccc(OCC2CCN(Cc3ccc4ccccc4c3)CC2)cc1 , respond with its ED50.
OUTPUT: 1.7

INPUT: Identify measured ED50 associated with c1ccc(OCC2CCN(CC3CC3)CC2)cc1
OUTPUT: 30

INPUT: Using known records, supply ED50 for O=S(=O)(CC1CCN(CCC2CC2)CC1)c1ccc(F)cc1
OUTPUT: 6.4

INPUT: Supply recorded ED50 for Fc1ccc(COCC2CCN(CCc3ccccc3)CC2)cc1.O=C(O)/C=C\C(=O)O here.
OUTPUT: 15

INPUT: Query ED50 for COc1ccc(CN2CCC(COc3ccc(F)cc3)CC2)cc1.O.O=C(O)/C=C\C(=O)O
OUTPUT: 6.5

INPUT: Provide only the value of recorded ED50 for Fc1ccc(OCC2CCN(Cc3ccncc3)CC2)cc1.O
OUTPUT: 1.1

INPUT: In one line, give reported ED50 of the entry Br.O=C(CC1CCN(CC2CC2)CC1)c1ccc(-c2ccccc2)cc1 .
OUTPUT: 4.7

INPUT: State its ED50 for this compound: O=C(CC1CCN(Cc2ccc(F)cc2)CC1)c1ccc(F)cc1
OUTPUT: 4.5
